Target: His6-AspH315–758 (human aspartate/asparagine-β-hydroxylase, AspH) (Homo sapiens)
Construct: N-Terminally His6-tagged human AspH315–758 (His6-AspH315–758) was produced in E. coli BL21 (DE3) cells; made in house; host or cells: E. coli BL21 (DE3), pET-28a(+) vector
Sequence (Q12797 315-758): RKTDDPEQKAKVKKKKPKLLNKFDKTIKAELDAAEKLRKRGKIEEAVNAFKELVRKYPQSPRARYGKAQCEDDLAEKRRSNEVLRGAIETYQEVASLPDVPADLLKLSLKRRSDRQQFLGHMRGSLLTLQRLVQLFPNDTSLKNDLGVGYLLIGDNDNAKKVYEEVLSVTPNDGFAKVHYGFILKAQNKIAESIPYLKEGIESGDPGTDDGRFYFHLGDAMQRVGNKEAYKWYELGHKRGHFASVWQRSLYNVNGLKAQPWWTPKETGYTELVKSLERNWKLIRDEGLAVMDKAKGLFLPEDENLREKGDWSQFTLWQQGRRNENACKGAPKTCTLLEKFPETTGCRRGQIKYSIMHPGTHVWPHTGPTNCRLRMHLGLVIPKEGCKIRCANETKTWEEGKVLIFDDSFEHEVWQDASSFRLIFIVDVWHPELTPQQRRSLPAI
Assay: SPE-MS AspH inhibition assay (LOPAC screen at fixed 20 μM and IC50 dose-response), hydroxylation of cyclic peptide hFX-CP101–119
Assay type: biochemical
Details: LOPAC compound at fixed 20 uM; plate 1, normalised to DMSO and 2,4-PDCA controls
Structures can show the parent of a compound that is named as a salt.

compound | Plate 1 (% inhibition) [%]
C[N+]1(C)[C@@H]2CC[C@H]1C[C@@H](OC(=O)C(CO)c1ccccc1)C2 (stereo partly shown) [Atropine methyl bromide] | -14.40
CCc1ccc2c(-c3cccc(Cl)c3)nc(=O)n(CC)c2n1 | -17.07
CCC(C)N(C)C(=O)c1cc2ccccc2c(-c2ccccc2Cl)n1 (stereo not shown) | -10.48
Cc1c(-c2ccc(-c3ccccc3F)cc2)nc2ccc(F)cc2c1C(=O)[O-].[Na+] [Brequinar sodium salt hydrate] | 11.82
O=C1Nc2ccccc2/C1=C1/Nc2ccccc2/C1=N\O | 11.42
CN1[C@@H]2CC[C@H]1C[C@@H](OC(c1ccccc1)c1ccccc1N)C2 (stereo partly shown) | -6.68
C[C@H](Cc1ccc(OCC(=O)[O-])cc1)NC[C@H](O)c1cccc(Cl)c1.[Na+] [BRL 37344 sodium] | 4.03
Cl.NC1(C(=O)O)CC1 | -3.97
NC(=O)c1cc[n+](CC2=C(C(=O)[O-])N3C(=O)[C@@H](NC(=O)C(c4ccccc4)S(=O)(=O)[O-])[C@H]3SC2)cc1.O.[Na+] (stereo partly shown) [Cefsulodin sodium salt hydrate] | 64.70
NC(=O)c1cc(N2CC2)c([N+](=O)[O-])cc1[N+](=O)[O-] | 4.86
N[C@@H](CS(=O)O)C(=O)O | 8.76
N=C(N)NC(=O)c1nc(Cl)c(N2CCCCCC2)nc1N [5-(N,N-hexamethylene)amiloride] | -28.14
CN(C)CCC=C1c2ccccc2C=Cc2ccccc21 [Cyclobenzaprine hydrochloride] | -15.86
COC(=O)[C@H]1[C@H]2C[C@@H]3c4[nH]c5cc(OC)ccc5c4CCN3C[C@H]2C[C@@H](OC(=O)c2cc(OC)c(OC)c(OC)c2)[C@@H]1OC | -13.78
CC1=C(C)C(=O)C(CCCCC#CCCCC#CCO)=C(C)C1=O | -23.70
O=C(O)CCCCCCCC(=O)O | 11.13
CC(=O)/C=C1\C(=O)N(C)c2ccccc21 | -3.46
Cl.Nc1ccn([C@@H]2O[C@H](CO)[C@@H](O)[C@@H]2O)c(=O)n1 | -2.68
O=c1cc(-c2ccc(O)cc2)oc2cc(O)cc(O)c12 [Apigenin, reference compound] | 95.84
Oc1ccc(-c2nc(-c3ccncc3)c(-c3ccc(F)cc3)[nH]2)cc1 | -5.28
CO/N=C(\C(=O)N[C@@H]1C(=O)N2C(C(=O)O)=C(COC(C)=O)CS[C@H]12)c1csc(N)n1 [Cefotaxime sodium] | 3.71
CC(C)COCC(CN(Cc1ccccc1)c1ccccc1)N1CCCC1 (stereo not shown) [Bepridil hydrochloride] | 94.47
CN(C)CCC=C1c2ccccc2CCc2ccccc21 [Amitriptyline hydrochloride] | -8.33
Nc1ncn([C@@H]2O[C@H](CO)[C@@H](O)[C@H]2O)c(=O)n1 | 7.60
C[C@]12CC[C@@H]3c4ccc(O)cc4C[C@@H](CCCCCCCCC[S+]([O-])CCCC(F)(F)C(F)(F)F)[C@H]3[C@@H]1CC[C@@H]2O (stereo partly shown) | 12.89
NCCCC(=O)O | -1.98
Cl.NOCC(=O)O.NOCC(=O)O | -6.07
N#CCCN.N#CCCN.O=C(O)/C=C/C(=O)O [3-Aminopropionitrile fumarate] | 48.97
NC(N)=NCCCCN=C(N)N [Arcaine sulfate] | -5.14
CN(C)CCC(c1ccc(Cl)cc1)c1ccccn1.O=C(O)/C=C\C(=O)O (racemic) [(±)-Chlorpheniramine maleate] | -6.31
CCCCNc1cc(C(=O)O)cc(S(N)(=O)=O)c1Oc1ccccc1 [Bumetanide] | 3.08
CC1=C(/C=C/C(C)=C/C=C/C(C)=C/C=C/C=C(C)/C=C/C=C(C)/C=C/C2=C(C)C(=O)[C@@H](O)CC2(C)C)C(C)(C)C[C@H](O)C1=O | -2.40
Nc1c[n+](N2CCOCC2)no1.[Cl-] [3-Morpholinosydnonimine hydrochloride] | 64.67
Nc1nc(Cl)nc2c1ncn2[C@@H]1O[C@H](CO)[C@@H](O)[C@H]1O | -4.87
